Protocol Summary: Oral bioavailability in rat
Assay type: ADME, organism-based
Condition Set: in vivo
Entries and their bioavailability
Number only, in %; omit the unit.

Illustrative cases are given below, each with its answer.
Smi: Cn1c(N2CCN(CCCCN3c4ccccc4Sc4ccc(C(=O)O)cc43)CC2)cc(=O)n(C)c1=O
Property Name: bioavailability
Unit Symbol: %
Numeric Value: 16

Smi: Cn1c(NCCCN2CCC(Oc3ccc(Cl)c(Cl)c3)CC2)cc(=O)n(C)c1=O
Property Name: bioavailability
Unit Symbol: %
Numeric Value: 25

Smi: Cn1c(N2CCCN(CCCN3c4ccccc4Sc4ccc(CCC(=O)O)cc43)CC2)cc(=O)n(C)c1=O
Property Name: bioavailability
Unit Symbol: %
Numeric Value: 7

Smi: Cn1c(N2CCN(CCCN3c4ccccc4Sc4ccc(CCC(=O)O)cc43)CC2)cc(=O)n(C)c1=O
Property Name: bioavailability
Unit Symbol: %
Numeric Value: 51

Smi: Cn1c(C2=CCN(CCCN3c4ccccc4Sc4ccc(CC(=O)O)cc43)CC2)cc(=O)n(C)c1=O
Property Name: bioavailability
Unit Symbol: %
Numeric Value: 30

Smi: Cn1c(N2CCN(CCCN3c4ccccc4Sc4ccc(CC(=O)O)cc43)CC2)cc(=O)n(C)c1=O
Property Name: bioavailability
Unit Symbol: %
Numeric Value: 27

Identify the reported bioavailability for the following entry. Cn1c(N2CCCN(CCCN3c4ccccc4Sc4ccc(CC(=O)O)cc43)CC2)cc(=O)n(C)c1=O
19

---

The compounds listed here are annotated with their bioavailability.
Protocol Summary: Oral bioavailability in rat
Assay type: ADME, organism-based
Condition Set: in vivo
Number only, in %; omit the unit.

Compound: CCC(C(=O)O)c1ccc2c(c1)N(CCCN1CCCN(c3cc(=O)n(C)c(=O)n3C)CC1)c1ccccc1S2 (centres undefined)
Numeric Value: 14

Please indicate bioavailability recorded for Cn1c(N2CCN(CCCN3c4ccccc4Sc4ccc(C(=O)O)cc43)CC2)cc(=O)n(C)c1=O
17

Fill in bioavailability for record Cn1c(N2CCCN(CCCN3c4ccccc4Sc4ccc(C(=O)O)cc43)CC2)cc(=O)n(C)c1=O
7

Identify measured bioavailability associated with CC(C(=O)O)c1ccc2c(c1)N(CCCN1CCCN(c3cc(=O)n(C)c(=O)n3C)CC1)c1ccccc1S2 (centres undefined)
10

---

pIC50 reference
Measured On: UniProt:P35367
Sequence (P35367 whole entry): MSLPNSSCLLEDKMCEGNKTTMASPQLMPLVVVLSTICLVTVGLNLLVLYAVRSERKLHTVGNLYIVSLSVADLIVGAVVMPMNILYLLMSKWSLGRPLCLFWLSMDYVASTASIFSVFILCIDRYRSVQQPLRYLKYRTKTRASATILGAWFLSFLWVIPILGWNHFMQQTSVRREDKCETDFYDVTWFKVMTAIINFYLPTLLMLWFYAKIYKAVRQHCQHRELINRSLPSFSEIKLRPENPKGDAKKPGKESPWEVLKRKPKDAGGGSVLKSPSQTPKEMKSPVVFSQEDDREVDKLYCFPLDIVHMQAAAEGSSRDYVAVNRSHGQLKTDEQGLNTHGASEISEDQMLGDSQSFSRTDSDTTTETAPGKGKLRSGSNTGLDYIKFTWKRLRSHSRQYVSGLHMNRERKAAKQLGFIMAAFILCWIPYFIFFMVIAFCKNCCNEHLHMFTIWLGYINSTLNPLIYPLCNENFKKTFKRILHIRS
Protocol Summary: Displacement of [3H]pyrilamine from human recombinant histamine H1 receptor expressed in CHOK1 cells by scintillation counting
Type: cell-based, CHO-K1
On this scale, pIC50 is minus log10 of a concentration expressed in M (mol/L).

The examples below pair each entry with its known result.
Compound: CCC(C(=O)O)c1ccc2c(c1)N(CCCN1CCCN(c3cc(=O)n(C)c(=O)n3C)CC1)c1ccccc1S2 (centres undefined)
pIC50: 7.39
--
Compound: Cn1c(N2CCCN(CCCN3c4ccccc4Sc4ccc(/C=C\C(=O)O)cc43)CC2)cc(=O)n(C)c1=O
pIC50: 6.49
--
Compound: Cn1c(N2CCN(CCCCN3c4ccccc4Sc4ccc(C(=O)O)cc43)CC2)cc(=O)n(C)c1=O
pIC50: 7.46
--
Compound: CN(CCCN1CCC(CN2c3ccccc3Sc3ccc(C(=O)O)cc32)CC1)c1cc(=O)n(C)c(=O)n1C
pIC50: 7.28
--
Compound: Cn1c(N2CCN(CCCN3c4ccccc4Sc4ccc(CCC(=O)O)cc43)CC2)cc(=O)n(C)c1=O
pIC50: 6.98
--
Compound: Cn1c(N2CCCN(CCCN3c4ccccc4Sc4ccc(CC(=O)O)cc43)CC2)cc(=O)n(C)c1=O
pIC50: 7.64

Check the records and state pIC50 for CC(C(=O)O)c1ccc2c(c1)N(CCCN1CCCN(c3cc(=O)n(C)c(=O)n3C)CC1)c1ccccc1S2 (centres undefined)
7.14

Note down pIC50 recorded for Cn1c(N2CCN(CCCN3c4ccccc4Sc4ccc(C(=O)O)cc43)CC2)cc(=O)n(C)c1=O
7.43

Give pIC50 for Cn1c(N2CCCN(CCCN3c4ccccc4Sc4ccc(OCC(=O)O)cc43)CC2)cc(=O)n(C)c1=O
7.06

Read the entry Cn1c(C2=CCN(CCCN3c4ccccc4Sc4ccc(CC(=O)O)cc43)CC2)cc(=O)n(C)c1=O and write its reported pIC50.
7.39

Read the entry Cn1c(N2CCCN(CCCN3c4ccccc4Sc4ccc(C(C)(C)C(=O)O)cc43)CC2)cc(=O)n(C)c1=O and write its reported pIC50.
6.91

Note pIC50 for the compound shown: Cn1c(N2CCN(CCN3c4ccccc4Sc4ccc(C(=O)O)cc43)CC2)cc(=O)n(C)c1=O
6.91

Note pIC50 for the compound shown: Cn1c(NCCCN2CCC(CN3c4ccccc4Sc4ccc(C(=O)O)cc43)CC2)cc(=O)n(C)c1=O
7.34

Determine its reported pIC50: Cn1c(N2CCN(CCCN3c4ccccc4Sc4ccc(CC(=O)O)cc43)CC2)cc(=O)n(C)c1=O
7.40

Kindly indicate its recorded pIC50. Item: Cn1c(NCCCN2CCC(Oc3ccc(Cl)c(Cl)c3)CC2)cc(=O)n(C)c1=O
7.55

Give the reported pIC50 for this compound. Cn1c(N2CCCN(CCCN3c4ccccc4Sc4ccc(C(=O)O)cc43)CC2)cc(=O)n(C)c1=O
7.64

Answer with reported pIC50 of Cn1c(N2CCCN(CCCN3c4ccccc4Sc4ccc(CCC(=O)O)cc43)CC2)cc(=O)n(C)c1=O
7.16
